molecular target: OATP1B1 (Homo sapiens, UniProt Q9Y6L6); conditions: 5 nmol/l [3H]-CER; concentrations up to 100 µmol/l
Sequence (Q9Y6L6 whole entry): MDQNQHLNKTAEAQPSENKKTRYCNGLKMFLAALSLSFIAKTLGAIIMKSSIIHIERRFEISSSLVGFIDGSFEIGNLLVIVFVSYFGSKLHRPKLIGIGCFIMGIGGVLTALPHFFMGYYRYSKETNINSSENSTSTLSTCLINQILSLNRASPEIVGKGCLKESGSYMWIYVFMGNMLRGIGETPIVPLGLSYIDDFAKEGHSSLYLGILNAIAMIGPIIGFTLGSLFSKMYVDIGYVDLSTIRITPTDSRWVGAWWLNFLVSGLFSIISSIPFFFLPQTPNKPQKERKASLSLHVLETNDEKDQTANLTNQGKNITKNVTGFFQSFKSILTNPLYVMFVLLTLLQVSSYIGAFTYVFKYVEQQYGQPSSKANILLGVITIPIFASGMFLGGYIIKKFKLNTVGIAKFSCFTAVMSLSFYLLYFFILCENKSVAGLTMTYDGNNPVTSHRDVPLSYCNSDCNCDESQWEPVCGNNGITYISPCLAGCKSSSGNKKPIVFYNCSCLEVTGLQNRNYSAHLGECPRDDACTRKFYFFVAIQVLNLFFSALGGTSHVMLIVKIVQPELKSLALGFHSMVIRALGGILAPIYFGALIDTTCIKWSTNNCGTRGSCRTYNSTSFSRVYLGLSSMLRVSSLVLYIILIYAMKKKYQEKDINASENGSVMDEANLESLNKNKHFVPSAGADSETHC
Structures can show the parent of a compound that is named as a salt.
Measured Metric: Inhibition of OATP1B1-mediated uptake of cerivastatin (in words)

# input For the molecule CCc1ccc(CCOc2ccc(CC3SC(=O)NC3=O)cc2)nc1 (stereo not drawn) [Pioglitazone, pioglitazone hydrochloride] , what Inhibition of OATP1B1-mediated uptake of cerivastatin (in words) is on record?
# output inhibited

# input Now this one: CC(C)(O)c1ccccc1CC[C@@H](SCC1(CC(=O)O)CC1)c1cccc(/C=C/c2ccc3ccc(Cl)cc3n2)c1 [Montelukast, montelukast sodium]
# output inhibited

These measurements were taken from paper PMC3894639.
